Entries and their measured Ki follow.
# Tested on: human serotonin re-uptake transporter (hSERT) (Homo sapiens, UniProt P31645)
# Sequence (P31645 whole entry): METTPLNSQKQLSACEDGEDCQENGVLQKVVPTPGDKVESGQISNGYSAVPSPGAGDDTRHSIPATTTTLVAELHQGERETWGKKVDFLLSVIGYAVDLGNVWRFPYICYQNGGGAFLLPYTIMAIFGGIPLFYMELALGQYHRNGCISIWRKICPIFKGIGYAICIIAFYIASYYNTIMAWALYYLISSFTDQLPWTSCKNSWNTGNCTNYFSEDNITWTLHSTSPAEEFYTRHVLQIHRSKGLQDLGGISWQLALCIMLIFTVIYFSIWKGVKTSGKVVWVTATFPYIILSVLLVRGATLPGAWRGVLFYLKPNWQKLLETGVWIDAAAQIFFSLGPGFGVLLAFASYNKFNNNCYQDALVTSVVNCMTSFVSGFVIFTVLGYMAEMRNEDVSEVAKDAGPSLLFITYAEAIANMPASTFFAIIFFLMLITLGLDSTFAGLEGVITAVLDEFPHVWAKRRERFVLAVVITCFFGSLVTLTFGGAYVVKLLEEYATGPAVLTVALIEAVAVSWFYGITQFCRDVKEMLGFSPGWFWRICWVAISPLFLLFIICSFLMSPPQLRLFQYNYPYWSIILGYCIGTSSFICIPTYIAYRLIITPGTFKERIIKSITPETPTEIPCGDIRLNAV
# Assay text: Serotonin uptake inhibition in HEK-293 cells expressing hSERT
# Settings: transfected HEK-293 cells; Ki from measured IC50 by Cheng-Prusoff; average +/− s.e.m. of two experiments; read-out: Inhibition constant Ki for tritiated serotonin uptake
State just the number; it will be interpreted in µM.

CC(C)=CCC1=C(O)C(C(=O)CC(C)C)=C(O)C(CC=C(C)C)(CC=C(C)C)C1=O	6

Please look at the following molecule next.
QUERY: Could you tell me which Ki is on file for CC(C)=CCC1C(=O)C(C(=O)CC(C)C)=C(O)C(O)(CC=C(C)C)C1=O (single isomer, unassigned; (-)) [(−)-humulone] ?
RESULT: 16.9
